# MEASURED_TARGET: T1, full length Tau (2N4R, htau40) (human, UniProt P10636 1-758)
# T1 construct: Generated and purified by Genscript; also called FL Tau; FLT
# T1 sequence (P10636 other isoform, or with tags, fused parts or gaps limits assumed): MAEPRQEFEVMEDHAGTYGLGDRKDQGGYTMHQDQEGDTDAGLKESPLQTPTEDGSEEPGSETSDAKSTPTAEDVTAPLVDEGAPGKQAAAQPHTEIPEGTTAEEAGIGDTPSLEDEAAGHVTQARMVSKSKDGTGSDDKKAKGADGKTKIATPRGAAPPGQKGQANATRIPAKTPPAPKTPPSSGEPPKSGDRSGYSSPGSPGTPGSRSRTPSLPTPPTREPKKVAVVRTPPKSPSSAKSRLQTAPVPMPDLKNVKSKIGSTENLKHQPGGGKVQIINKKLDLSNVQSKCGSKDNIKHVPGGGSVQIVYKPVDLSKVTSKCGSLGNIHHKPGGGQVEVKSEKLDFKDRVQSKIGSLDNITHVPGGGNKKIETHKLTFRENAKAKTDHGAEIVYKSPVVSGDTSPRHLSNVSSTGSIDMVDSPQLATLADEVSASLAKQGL
# PROCEDURE_SUMMARY: Octet, antibody on Protein G sensor, FL Tau in solution

[
  {
    "BINDER": "Tau01 HMKE HuG4k (antibody, V domains shown, human IgG4 kappa (HuG4K); also called KMKE) VH: LVQLVESGGGLVQPGGSLKLSCAASGFTFNTYAMNWVRQASGKGLEWVARIRSKSNNYATYYAASVKGRFTISRDDSKSMAYLQMDSLKTEDTAVYYCVGGGDFWGQGTLVTVSS VL: DIQMTQSPSSLSASVGDRVTITCRASQEISVYLGWFQQKPGKAPKRLIYGAFKLQSGVPSRFSGSRSGTEFTLTISSLQPEDFATYYCLQYVRYPWTFGGGTKVEIK",
    "binding result": "no binding"
  },
  {
    "BINDER": "Tau01 HMKN HuG4k (antibody, V domains shown, human IgG4 kappa (HuG4K)) VH: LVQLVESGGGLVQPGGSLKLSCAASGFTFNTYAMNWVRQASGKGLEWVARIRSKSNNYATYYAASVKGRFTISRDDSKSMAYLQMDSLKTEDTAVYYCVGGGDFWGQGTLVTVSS VL: DIQMTQSPSSLSASVGDRVTITCRASQEISVYLGWYQQKPGKAPKRLIYGAFTLQSGVPSRFSGSRSGTEYTLTISSLQPEDFATYYCLQYVRYPWTFGGGTKVEIK",
    "binding result": "no binding"
  },
  {
    "BINDER": "Tau01 HMKP HuG4k (antibody, V domains shown, human IgG4 kappa (HuG4K); Lead candidate) VH: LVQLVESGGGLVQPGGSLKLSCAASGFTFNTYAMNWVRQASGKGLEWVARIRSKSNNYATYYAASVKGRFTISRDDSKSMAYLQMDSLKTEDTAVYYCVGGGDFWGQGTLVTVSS VL: DIQMTQSPSSLSASVGDRVTITCRASQEISVYLGWFQQKPGKAPKRLIYGAFKLQSGVPSRFSGSRSGTEYTLTISSLQPEDFATYYCLQYVRYPWTFGGGTKVEIK",
    "binding result": "no binding"
  }
]

Reference for the values: patent US20220064272A1
